# TARGET OF ASSAY: XXYLT1_C10 (Homo sapiens)
# Construct: endogenous in cells; host or cells: 22Rv1
# Sequence (Q8NBI6 whole entry): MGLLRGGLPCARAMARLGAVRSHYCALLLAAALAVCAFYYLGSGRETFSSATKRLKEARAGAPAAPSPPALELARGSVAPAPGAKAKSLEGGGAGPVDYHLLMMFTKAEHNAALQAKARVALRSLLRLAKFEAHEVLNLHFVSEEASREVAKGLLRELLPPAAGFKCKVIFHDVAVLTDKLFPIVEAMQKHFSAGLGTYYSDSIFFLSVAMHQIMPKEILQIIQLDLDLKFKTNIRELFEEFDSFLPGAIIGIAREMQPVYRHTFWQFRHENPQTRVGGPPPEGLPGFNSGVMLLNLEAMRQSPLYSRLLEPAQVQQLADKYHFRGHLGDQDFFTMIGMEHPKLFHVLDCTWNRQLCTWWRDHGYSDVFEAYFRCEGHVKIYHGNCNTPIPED
# TEST: IA-DTB cysteine engagement
# Assay type: binding
# STATED CONDITIONS: 22Rv1 cells, 20 μM probe, 1 h, relative to DMSO
VALUE TYPE: % engagement XXYLT1_C10 (%)

INSERT INTO assay_data (compound, result_number) VALUES
  ('C=CC(=O)N1C[C@@H](c2ccc(Br)cc2)[C@H]1C(=O)Nc1cccc2cccnc12', 76.5),
  ('C=CC(=O)N1C[C@H](c2ccc(Br)cc2)[C@H]1C(=O)Nc1cccc2cccnc12 [MY-3B]', 93),
  ('C=CC(=O)N1C[C@H](c2ccc(Br)cc2)[C@H]1C(=O)Nc1cccc2cccnc12 [MY-3A]', 67),
  ('C=CC(=O)N1C[C@H](c2ccc(Br)cc2)[C@@H]1C(=O)Nc1cccc2cccnc12', 77);

---

# TARGET OF ASSAY: SRC_C280 (Homo sapiens, UniProt P12931)
# Construct: endogenous in cells; host or cells: 22Rv1
# Sequence (P12931 whole entry): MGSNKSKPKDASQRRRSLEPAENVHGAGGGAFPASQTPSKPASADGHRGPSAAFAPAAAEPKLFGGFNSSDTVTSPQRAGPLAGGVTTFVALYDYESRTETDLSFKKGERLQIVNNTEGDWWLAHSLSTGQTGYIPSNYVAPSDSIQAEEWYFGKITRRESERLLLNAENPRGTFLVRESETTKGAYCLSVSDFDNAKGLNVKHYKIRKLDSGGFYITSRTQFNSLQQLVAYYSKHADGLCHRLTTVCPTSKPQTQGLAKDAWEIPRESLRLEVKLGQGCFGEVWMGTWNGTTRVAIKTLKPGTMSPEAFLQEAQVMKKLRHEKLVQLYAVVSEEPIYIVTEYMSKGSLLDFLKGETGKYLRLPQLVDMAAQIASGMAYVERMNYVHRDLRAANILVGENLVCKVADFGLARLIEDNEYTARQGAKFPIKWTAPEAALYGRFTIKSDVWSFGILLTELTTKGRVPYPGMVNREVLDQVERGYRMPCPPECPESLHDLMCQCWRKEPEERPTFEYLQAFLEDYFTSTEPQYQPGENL
# TEST: IA-DTB cysteine engagement
# Type: binding
# STATED CONDITIONS: 22Rv1 cells, 20 μM probe, 1 h, relative to DMSO
VALUE TYPE: % engagement SRC_C280 (%)

INSERT INTO measurements (compound, result_number) VALUES
  ('C=CC(=O)N1C[C@H](c2ccc(Br)cc2)[C@@H]1C(=O)Nc1cccc2cccnc12', 92.25),
  ('C=CC(=O)N1C[C@H](c2ccc(Br)cc2)[C@H]1C(=O)Nc1cccc2cccnc12 [MY-3B]', 64);

A: C=CC(=O)N1C[C@H](c2ccc(Br)cc2)[C@H]1C(=O)Nc1cccc2cccnc12 [MY-3A]
B: C=CC(=O)N1C[C@@H](c2ccc(Br)cc2)[C@H]1C(=O)Nc1cccc2cccnc12
Ask: Which shows the larger % engagement SRC_C280 value: A or B ? Field: selected label. Fill in the label of the entry you choose.
Reply: B

---

# TARGET OF ASSAY: GCN1_C1095 (Homo sapiens, UniProt Q92616)
# Construct: endogenous in cells; host or cells: 22Rv1
# Sequence (Q92616 whole entry): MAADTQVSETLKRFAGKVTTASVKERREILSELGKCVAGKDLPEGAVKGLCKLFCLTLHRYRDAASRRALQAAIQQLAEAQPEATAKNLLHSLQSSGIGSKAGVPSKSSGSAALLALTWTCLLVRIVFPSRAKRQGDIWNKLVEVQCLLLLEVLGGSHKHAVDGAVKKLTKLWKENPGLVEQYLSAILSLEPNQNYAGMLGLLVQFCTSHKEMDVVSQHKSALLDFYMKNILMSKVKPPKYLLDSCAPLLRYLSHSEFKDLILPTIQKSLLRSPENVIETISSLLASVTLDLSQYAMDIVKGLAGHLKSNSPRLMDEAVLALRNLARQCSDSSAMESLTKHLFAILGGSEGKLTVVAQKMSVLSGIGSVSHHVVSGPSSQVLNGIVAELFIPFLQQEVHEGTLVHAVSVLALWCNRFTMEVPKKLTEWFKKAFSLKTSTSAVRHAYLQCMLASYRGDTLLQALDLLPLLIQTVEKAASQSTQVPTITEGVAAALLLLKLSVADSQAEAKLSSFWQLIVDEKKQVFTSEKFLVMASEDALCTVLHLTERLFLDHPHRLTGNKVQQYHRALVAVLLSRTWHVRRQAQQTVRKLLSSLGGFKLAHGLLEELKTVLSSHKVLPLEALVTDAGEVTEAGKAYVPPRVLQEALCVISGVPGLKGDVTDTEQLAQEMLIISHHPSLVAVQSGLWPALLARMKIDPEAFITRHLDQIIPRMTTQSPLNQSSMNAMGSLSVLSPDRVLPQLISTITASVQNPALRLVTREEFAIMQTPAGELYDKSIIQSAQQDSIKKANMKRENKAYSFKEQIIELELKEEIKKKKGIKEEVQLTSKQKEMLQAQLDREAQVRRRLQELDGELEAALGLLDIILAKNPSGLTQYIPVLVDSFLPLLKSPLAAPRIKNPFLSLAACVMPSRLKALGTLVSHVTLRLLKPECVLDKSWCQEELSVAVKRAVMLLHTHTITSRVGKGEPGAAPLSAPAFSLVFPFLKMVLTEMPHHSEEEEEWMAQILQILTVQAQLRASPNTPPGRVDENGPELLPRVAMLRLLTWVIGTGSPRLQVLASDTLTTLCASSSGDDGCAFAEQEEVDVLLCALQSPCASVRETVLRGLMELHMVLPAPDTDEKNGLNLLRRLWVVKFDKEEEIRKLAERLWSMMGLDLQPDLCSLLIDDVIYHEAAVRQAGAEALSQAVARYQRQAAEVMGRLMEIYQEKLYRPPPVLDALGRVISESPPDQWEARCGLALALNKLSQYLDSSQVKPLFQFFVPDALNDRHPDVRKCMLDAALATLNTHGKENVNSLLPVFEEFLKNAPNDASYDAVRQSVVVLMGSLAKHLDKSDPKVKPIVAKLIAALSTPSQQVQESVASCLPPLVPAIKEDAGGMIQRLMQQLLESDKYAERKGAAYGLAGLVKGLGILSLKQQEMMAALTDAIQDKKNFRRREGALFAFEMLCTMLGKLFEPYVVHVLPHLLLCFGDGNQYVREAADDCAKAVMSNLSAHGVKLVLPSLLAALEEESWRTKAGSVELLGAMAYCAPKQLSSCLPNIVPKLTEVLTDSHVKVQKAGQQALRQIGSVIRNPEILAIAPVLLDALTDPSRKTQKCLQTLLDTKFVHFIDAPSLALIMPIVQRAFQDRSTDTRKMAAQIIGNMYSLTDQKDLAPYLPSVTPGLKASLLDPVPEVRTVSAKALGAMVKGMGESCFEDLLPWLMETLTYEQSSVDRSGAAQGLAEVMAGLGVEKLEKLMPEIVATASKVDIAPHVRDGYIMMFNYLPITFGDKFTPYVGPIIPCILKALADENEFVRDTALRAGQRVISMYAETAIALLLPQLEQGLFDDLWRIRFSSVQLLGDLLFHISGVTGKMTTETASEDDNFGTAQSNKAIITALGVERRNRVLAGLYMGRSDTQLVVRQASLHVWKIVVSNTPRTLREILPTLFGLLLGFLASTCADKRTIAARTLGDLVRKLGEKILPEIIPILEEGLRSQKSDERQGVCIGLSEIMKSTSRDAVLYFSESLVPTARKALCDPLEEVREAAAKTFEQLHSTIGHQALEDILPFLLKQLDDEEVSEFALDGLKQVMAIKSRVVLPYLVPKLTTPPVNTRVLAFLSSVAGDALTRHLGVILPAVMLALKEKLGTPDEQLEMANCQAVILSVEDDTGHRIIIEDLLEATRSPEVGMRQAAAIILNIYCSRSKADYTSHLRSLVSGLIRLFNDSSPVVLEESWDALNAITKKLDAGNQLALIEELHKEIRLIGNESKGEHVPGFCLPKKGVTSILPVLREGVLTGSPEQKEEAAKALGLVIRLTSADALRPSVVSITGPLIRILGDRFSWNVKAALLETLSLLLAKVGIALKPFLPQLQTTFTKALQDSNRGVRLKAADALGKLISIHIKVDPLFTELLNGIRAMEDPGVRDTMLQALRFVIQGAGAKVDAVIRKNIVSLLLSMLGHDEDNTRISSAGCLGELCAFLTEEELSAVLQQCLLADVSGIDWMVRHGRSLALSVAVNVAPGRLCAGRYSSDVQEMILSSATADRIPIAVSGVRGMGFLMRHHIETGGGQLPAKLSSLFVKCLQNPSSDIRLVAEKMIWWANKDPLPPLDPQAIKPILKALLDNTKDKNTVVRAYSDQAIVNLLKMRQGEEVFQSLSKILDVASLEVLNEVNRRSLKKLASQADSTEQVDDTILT
# TEST: IA-DTB cysteine engagement
# Format: binding
# STATED CONDITIONS: 22Rv1 cells, 20 μM probe, 1 h, relative to DMSO
VALUE TYPE: % engagement GCN1_C1095 (%)

1: C=CC(=O)N1C[C@H](c2ccc(Br)cc2)[C@H]1C(=O)Nc1cccc2cccnc12 [MY-3A]
2: C=CC(=O)N1C[C@@H](c2ccc(Br)cc2)[C@H]1C(=O)Nc1cccc2cccnc12
Ask: Of 1 versus 2 , which is the one with smaller reported % engagement GCN1_C1095? Use the label to indicate which entry you chose.
Reply: 1

P: C=CC(=O)N1C[C@H](c2ccc(Br)cc2)[C@@H]1C(=O)Nc1cccc2cccnc12
Q: C=CC(=O)N1C[C@H](c2ccc(Br)cc2)[C@H]1C(=O)Nc1cccc2cccnc12 [MY-3B]
Ask: Which record would sort first by descending % engagement GCN1_C1095, P or Q ? // return label of chosen record
Reply: P
(P: 84%, Q: −7.5%)

---

# TARGET OF ASSAY: NUDT8_C207 (Homo sapiens, UniProt Q8WV74)
# Construct: endogenous in cells; host or cells: 22Rv1
# Sequence (Q8WV74 1-236): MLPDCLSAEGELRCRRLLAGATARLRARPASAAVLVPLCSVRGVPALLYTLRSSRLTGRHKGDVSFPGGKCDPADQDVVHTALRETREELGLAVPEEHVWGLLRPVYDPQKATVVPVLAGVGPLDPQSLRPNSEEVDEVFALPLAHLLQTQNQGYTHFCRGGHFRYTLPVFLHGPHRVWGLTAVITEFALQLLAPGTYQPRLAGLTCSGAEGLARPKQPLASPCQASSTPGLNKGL
# TEST: IA-DTB cysteine engagement
# Format: binding
# STATED CONDITIONS: 22Rv1 cells, 20 μM probe, 1 h, relative to DMSO
# Protocol: Sample preparation: Cells (adherent: 15 cm dishes, suspension: 2 million cells/mL) were treated with electrophilic probes in situ for indicated times and concentrations, washed with ice-cold PBS, and flash frozen in liquid nitrogen. […] Whole cell lysates protein content was measured using a standard DC protein assay (Bio-Rad) and 500 μL (2 mg/mL protein content) were treated with 5 μL of 10 mM 1A-DTB (in DMSO) for 1 h at ambient temperature with occasional vortexing. […]
VALUE TYPE: % engagement NUDT8_C207 (%)

INSERT INTO measurements (compound, value_type, result_number) VALUES
  ('C=CC(=O)N1C[C@H](c2ccc(Br)cc2)[C@@H]1C(=O)Nc1cccc2cccnc12', '% engagement NUDT8_C207', 78.5),
  ('C=CC(=O)N1C[C@H](c2ccc(Br)cc2)[C@H]1C(=O)Nc1cccc2cccnc12 [MY-3B]', '% engagement NUDT8_C207', 88.75),
  ('C=CC(=O)N1C[C@@H](c2ccc(Br)cc2)[C@H]1C(=O)Nc1cccc2cccnc12', '% engagement NUDT8_C207', 71.5),
  ('C=CC(=O)N1C[C@H](c2ccc(Br)cc2)[C@H]1C(=O)Nc1cccc2cccnc12 [MY-3A]', '% engagement NUDT8_C207', 64.25);
